target: Mu-type opioid receptor (Homo sapiens); assay: biochemical; type: functional; also: assay procedure not described here
Sequence (P35372 whole entry): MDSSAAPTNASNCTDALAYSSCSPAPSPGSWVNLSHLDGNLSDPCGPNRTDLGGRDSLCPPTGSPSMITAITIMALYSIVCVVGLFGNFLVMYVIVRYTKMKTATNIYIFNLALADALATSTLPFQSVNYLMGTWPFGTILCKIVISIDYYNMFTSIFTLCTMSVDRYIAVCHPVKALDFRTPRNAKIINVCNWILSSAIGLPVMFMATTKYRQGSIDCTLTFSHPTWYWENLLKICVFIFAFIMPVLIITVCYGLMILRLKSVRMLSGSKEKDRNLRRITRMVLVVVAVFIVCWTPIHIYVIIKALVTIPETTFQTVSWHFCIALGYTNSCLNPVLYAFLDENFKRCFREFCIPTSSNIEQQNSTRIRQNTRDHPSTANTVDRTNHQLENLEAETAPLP

compound	target	AC50
CNC[C@H](O)c1cccc(O)c1	Mu-type opioid receptor (Homo sapiens)	> 30 µM
CCCCCCNC(=O)n1cc(F)c(=O)[nH]c1=O	Mu-type opioid receptor (Homo sapiens)	> 30 µM
CCCC[C@H](C)C[C@H](O)/C=C/[C@H]1[C@H](O)CC(=O)[C@@H]1CCCC/C=C/C(=O)O	Mu-type opioid receptor (Homo sapiens)	> 30 µM
N=C(N)NCCCCCCC(=O)NC(O)C(=O)NCCCCNCCCN (centres undefined)	Mu-type opioid receptor (Homo sapiens)	> 30 µM
Nc1nc(O)c2ncn(COC(CO)CO)c2n1	Mu-type opioid receptor (Homo sapiens)	> 30 µM
CC(C)CC(N(C)C)C1(c2ccc(Cl)cc2)CCC1 (centres undefined)	Mu-type opioid receptor (Homo sapiens)	> 30 µM
COc1c(O[C@@H]2O[C@H](CO)[C@@H](O)[C@H](O)[C@H]2O)cc2c(c1OC)-c1ccc(SC)c(=O)cc1[C@@H](NC(C)=O)CC2 [THIOCOLCHICOSIDE]	Mu-type opioid receptor (Homo sapiens)	> 30 µM
CC(=O)Oc1ccccc1C(=O)Nc1ncc([N+](=O)[O-])s1 [NITAZOXANIDE]	Mu-type opioid receptor (Homo sapiens)	> 30 µM
CNCC[C@@H](Oc1ccccc1C)c1ccccc1	Mu-type opioid receptor (Homo sapiens)	18 µM

Taken from ChEMBL document CHEMBL5291721.
